Value source: ChEMBL document CHEMBL1137053

Target protein (sequence): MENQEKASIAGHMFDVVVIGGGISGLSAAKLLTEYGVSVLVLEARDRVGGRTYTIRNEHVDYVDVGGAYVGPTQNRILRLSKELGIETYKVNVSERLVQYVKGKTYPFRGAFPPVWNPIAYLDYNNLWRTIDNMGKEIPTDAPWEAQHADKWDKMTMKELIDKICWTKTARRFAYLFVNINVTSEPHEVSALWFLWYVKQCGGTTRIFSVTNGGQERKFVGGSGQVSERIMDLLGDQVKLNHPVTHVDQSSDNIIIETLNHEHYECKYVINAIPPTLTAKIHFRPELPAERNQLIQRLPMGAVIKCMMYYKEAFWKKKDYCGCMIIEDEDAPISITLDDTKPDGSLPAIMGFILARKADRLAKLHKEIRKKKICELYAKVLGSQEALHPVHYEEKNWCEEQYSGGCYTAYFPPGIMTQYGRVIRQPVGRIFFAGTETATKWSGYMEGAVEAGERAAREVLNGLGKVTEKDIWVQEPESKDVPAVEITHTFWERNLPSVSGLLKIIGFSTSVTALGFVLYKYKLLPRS
Observable: IC50 (µM)

A: O=c1c2ccccc2oc2c(O)cccc12
B: COc1cc(O)c2c(=O)c3ccccc3oc2c1
Request: Hi! Which is lower in terms of IC50, the first one A or the second one B ? Identify your pick by its label.
Result: B

1: COc1ccc2c(=O)c3ccccc3oc2c1
2: O=c1c2cc(O)ccc2oc2cc(O)cc(O)c12
3: O=c1c2ccccc2oc2cccc(O)c12
4: COc1cc2oc3c(OC)cccc3c(=O)c2c(OC)c1OC
5: O=c1c2cc(O)c(O)cc2oc2cc(O)cc(O)c12
Request: // ranking: key=IC50, reverse=True The response must list the labels following the requested ordering.
Result: 4, 5, 2, 3, 1

P: O=c1c2cccc(O)c2oc2cccc(O)c12
Q: O=c1c2cccc(O)c2oc2cc(O)cc(O)c12
R: COc1cc(O)c2oc3c(C)ccc(OC)c3c(=O)c2c1
S: COc1cccc2oc3c(O)cccc3c(=O)c12
Request: Returns the items ordered by IC50, from maximum to minimum. Provide your answer as the labels ordered per the instruction.
Result: S, R, Q, P
